# targetDesc: C-Rel subunit;p50 subunit (Homo sapiens;Homo sapiens, UniProt Q04864;P19838 1-285;7-356)
# Sequence (Q04864 1-285, chain 1 of 2): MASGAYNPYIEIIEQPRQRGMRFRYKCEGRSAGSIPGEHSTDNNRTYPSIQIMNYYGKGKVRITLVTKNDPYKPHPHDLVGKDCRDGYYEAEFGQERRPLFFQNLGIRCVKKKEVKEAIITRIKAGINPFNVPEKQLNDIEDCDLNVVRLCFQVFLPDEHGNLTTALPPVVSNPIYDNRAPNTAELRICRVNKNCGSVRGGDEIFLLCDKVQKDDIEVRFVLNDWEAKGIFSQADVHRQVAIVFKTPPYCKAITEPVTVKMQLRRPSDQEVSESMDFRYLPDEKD
# Sequence (P19838 7-356, chain 2 of 2): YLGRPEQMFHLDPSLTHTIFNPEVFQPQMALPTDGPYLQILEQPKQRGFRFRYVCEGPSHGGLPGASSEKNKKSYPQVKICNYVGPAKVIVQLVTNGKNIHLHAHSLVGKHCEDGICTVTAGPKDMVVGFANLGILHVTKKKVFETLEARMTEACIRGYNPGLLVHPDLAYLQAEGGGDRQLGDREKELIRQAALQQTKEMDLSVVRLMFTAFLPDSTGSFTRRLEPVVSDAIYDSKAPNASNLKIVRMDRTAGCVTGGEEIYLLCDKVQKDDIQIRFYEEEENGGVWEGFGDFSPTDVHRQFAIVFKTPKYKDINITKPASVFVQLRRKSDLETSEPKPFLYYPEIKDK
# assayExplanation: protein binding microarray; high values mean tight binding
# testParameters: dsDNA, one strand shown
experimentalReadout: binding signal (z-score)

{"columns": ["sequenceString", "targetDesc", "recordedResult"],
 "data": [
  ["AGGTAGGTCCC", "C-Rel subunit;p50 subunit (Homo sapiens;Homo sapiens, UniProt Q04864;P19838 1-285;7-356)", 0.0304],
  ["GGGTTATCCCC", "C-Rel subunit;p50 subunit (Homo sapiens;Homo sapiens, UniProt Q04864;P19838 1-285;7-356)", 1.6],
  ["CGAAAGGCCCT", "C-Rel subunit;p50 subunit (Homo sapiens;Homo sapiens, UniProt Q04864;P19838 1-285;7-356)", -0.822],
  ["GAGTGACTCCC", "C-Rel subunit;p50 subunit (Homo sapiens;Homo sapiens, UniProt Q04864;P19838 1-285;7-356)", -0.837],
  ["CGAATTCTCCT", "C-Rel subunit;p50 subunit (Homo sapiens;Homo sapiens, UniProt Q04864;P19838 1-285;7-356)", -0.873],
  ["AGAAGATTCCT", "C-Rel subunit;p50 subunit (Homo sapiens;Homo sapiens, UniProt Q04864;P19838 1-285;7-356)", -0.495],
  ["GGAGGTACCCT", "C-Rel subunit;p50 subunit (Homo sapiens;Homo sapiens, UniProt Q04864;P19838 1-285;7-356)", -0.0429],
  ["CAGGGGATCCC", "C-Rel subunit;p50 subunit (Homo sapiens;Homo sapiens, UniProt Q04864;P19838 1-285;7-356)", 0.893],
  ["AGAGAACTCCT", "C-Rel subunit;p50 subunit (Homo sapiens;Homo sapiens, UniProt Q04864;P19838 1-285;7-356)", -1.01],
  ["CGGGAAGCCCT", "C-Rel subunit;p50 subunit (Homo sapiens;Homo sapiens, UniProt Q04864;P19838 1-285;7-356)", -0.133]
]}
